Taken from patent US20190062305A1.

Exercise: state measured CLint scaled at 0.5 μM for each of the compounds provided.
Assay: Metabolic stability in human liver microsomes, unbound intrinsic clearance (Cl int/fu mic)
Assay type: in vitro ADME
Conditions: human, liver microsomes, pH 7.4, human liver microsomes 0.25 mg/mL, 0.5 μM compound, NADPH, read-out: Cl int, mic unb. (h) [l/h/kg] (unbound intrinsic clearance, human)
Structures can show the parent of a compound that is named as a salt.

Compound	CLint scaled at 0.5 μM
COc1nc(OC2CC(F)(F)C2)cnc1CNC(=O)[C@@H]1CCCN1	< 5 L/h/kg
COc1nc(N2CCCCCC2)c(F)cc1CNC(=O)[C@@H]1CCCN1	5 to 50 L/h/kg
COc1nc(OC2CC3C(C2)C3(F)F)c(F)cc1CNC(=O)[C@@H]1CCCN1 (some centres unmarked)	< 5 L/h/kg
COc1nc(OC2CCC(F)(F)CC2)c(F)cc1CNC(=O)[C@@H]1CCCN1	< 5 L/h/kg

Each compound below has a recorded value; state its CLint scaled at 0.5 μM.
1. COc1nc(OC2CCC(C(F)(F)F)CC2)c(F)cc1CNC(=O)[C@@H]1CCN1C (some centres unmarked)
2. COc1nc(N(C)C2CC2)c(F)cc1CNC(=O)[C@@H]1CCCN1
3. COc1nc(NCC2CC(F)(F)C2)c(F)cc1CNC(=O)[C@@H]1CCCN1
4. COc1nc(O[C@H]2CC[C@@H](C(F)(F)F)CC2)c(F)cc1CN(C)C(=O)[C@@H]1CCCN1 [Example 119, hydrochloride]

["5 to 50 L/h/kg", "5 to 50 L/h/kg", "< 5 L/h/kg", "5 to 50 L/h/kg"]
